# System: Mus musculus
# assayOverview: Acute toxicity in ICR mouse assessed as mortality at 500 mg/kg, ip administered qd for 7 days
# Type: organism-based
# Set-up: dose 500 mg/kg, route intraperitoneal
# conditionSet: in vivo, 168 h
Peptide text beside a SMILES is read from it. * marks the point of attachment. OBn = c1ccc(CO*)cc1
measurementType: Activity

N[C@@H](Cc1c[nH]c2ccccc12)C(=O)N[C@@H](Cc1c[nH]c2ccccc12)C(=O)N1CCC[C@H]1C(=O)OCc1ccccc1 (H-Trp-Trp-Pro-OBn)	Non-toxic
C[C@H](NC(=O)[C@H](Cc1c[nH]c2ccccc12)NC(=O)[C@@H](N)Cc1c[nH]c2ccccc12)C(=O)OCc1ccccc1 (H-Trp-Trp-Ala-OBn)	Non-toxic
NC(=O)C[C@H](NC(=O)[C@H](Cc1c[nH]c2ccccc12)NC(=O)[C@@H](N)Cc1c[nH]c2ccccc12)C(=O)OCc1ccccc1 (H-Trp-Trp-Asn-OBn)	Non-toxic

* * *

# System: H22
# assayOverview: Antiproliferative activity against mouse H22 cells after 48 hrs by MTT assay
# Format: functional, cell-based
# conditionSet: H22, 48 h
Peptide text beside a SMILES is read from it. * marks the point of attachment. OBn = c1ccc(CO*)cc1
measurementType: IC50
Record the result as a number with its unit.

Look over these answered cases.
N[C@@H](Cc1c[nH]c2ccccc12)C(=O)N[C@@H](Cc1c[nH]c2ccccc12)C(=O)N[C@@H](CO)C(=O)OCc1ccccc1 (H-Trp-Trp-Ser-OBn)	46.3 µM
N[C@@H](Cc1c[nH]c2ccccc12)C(=O)N[C@@H](Cc1c[nH]c2ccccc12)C(=O)N[C@@H](CCC(=O)O)C(=O)OCc1ccccc1 (H-Trp-Trp-Glu-OBn)	13.7 µM
COc1cccc2c1C(=O)c1c(O)c3c(c(O)c1C2=O)C[C@@](O)(C(=O)CO)C[C@@H]3O[C@H]1C[C@H](N)[C@H](O)[C@H](C)O1	36.5 µM
CC[C@H](C)[C@H](NC(=O)[C@H](Cc1c[nH]c2ccccc12)NC(=O)[C@@H](N)Cc1c[nH]c2ccccc12)C(=O)OCc1ccccc1 (H-Trp-Trp-Ile-OBn)	21.7 µM
CSCC[C@H](NC(=O)[C@H](Cc1c[nH]c2ccccc12)NC(=O)[C@@H](N)Cc1c[nH]c2ccccc12)C(=O)OCc1ccccc1 (H-Trp-Trp-Met-OBn)	49.1 µM

Here is another compound to look at.
Item N[C@@H](Cc1c[nH]c2ccccc12)C(=O)N[C@@H](Cc1c[nH]c2ccccc12)C(=O)N[C@@H](Cc1c[nH]c2ccccc12)C(=O)OCc1ccccc1 (H-Trp-Trp-Trp-OBn) has what recorded IC50?
98.1 µM

* * *

# Test system: Mus musculus
# assayOverview: Toxicity in ICR mouse xenografted with mouse S180 cells assessed as increase in spleen index at 8.9 umol/kg
# Format: organism-based, CCRF S-180
# conditionSet: in vivo
Peptide text beside a SMILES is read from it. * marks the point of attachment. OBn = c1ccc(CO*)cc1
Label yes for high-side Activity (at or above 8) and no for low-side Activity (below it).

Worked cases, answers included:
CC(C)C[C@H](NC(=O)[C@H](Cc1c[nH]c2ccccc12)NC(=O)[C@@H](N)Cc1c[nH]c2ccccc12)C(=O)OCc1ccccc1 (H-Trp-Trp-Leu-OBn)	no
CSCC[C@H](NC(=O)[C@H](Cc1c[nH]c2ccccc12)NC(=O)[C@@H](N)Cc1c[nH]c2ccccc12)C(=O)OCc1ccccc1 (H-Trp-Trp-Met-OBn)	no
N[C@@H](Cc1c[nH]c2ccccc12)C(=O)N[C@@H](Cc1c[nH]c2ccccc12)C(=O)N[C@@H](Cc1cnc[nH]1)C(=O)OCc1ccccc1 (H-Trp-Trp-His-OBn)	yes

Textbook exercise: given the entry N[C@@H](Cc1c[nH]c2ccccc12)C(=O)N[C@@H](Cc1c[nH]c2ccccc12)C(=O)N[C@@H](Cc1c[nH]c2ccccc12)C(=O)OCc1ccccc1 (H-Trp-Trp-Trp-OBn) , state whether its Activity is greater than or equal to 8.
no

* * *

# Tested on: Mus musculus
# assayOverview: Toxicity in ICR mouse xenografted with mouse S180 cells assessed as increase in spleen index at 8.9 umol/kg
# Format: organism-based, CCRF S-180
# conditionSet: in vivo
Peptide text beside a SMILES is read from it. * marks the point of attachment. OBn = c1ccc(CO*)cc1
Below is a list of entries, each paired with its recorded Activity value.
Lab note: write the figure by itself, no unit.

Look over these answered cases.
CC(C)[C@H](NC(=O)[C@H](Cc1c[nH]c2ccccc12)NC(=O)[C@@H](N)Cc1c[nH]c2ccccc12)C(=O)OCc1ccccc1 (H-Trp-Trp-Val-OBn)	7.97
N[C@@H](Cc1c[nH]c2ccccc12)C(=O)N[C@@H](Cc1c[nH]c2ccccc12)C(=O)N1CCC[C@H]1C(=O)OCc1ccccc1 (H-Trp-Trp-Pro-OBn)	8.01

Here is another compound to look at.
Item N[C@@H](Cc1c[nH]c2ccccc12)C(=O)N[C@@H](Cc1c[nH]c2ccccc12)C(=O)N[C@@H](CCC(=O)O)C(=O)OCc1ccccc1 (H-Trp-Trp-Glu-OBn) has what recorded Activity?
7.92

Values compiled from ChEMBL document CHEMBL1806449.
